Record form. Attribute: OB 30 min (% ID/g). Fill in for each entry.
# assayDetails: In vivo biodistribution method
# Set-up: species or system Adult male Wistar rats
# assaySetup: olfactory bulb, 30 min after injection
Just the number in % ID/g, nothing appended.

Incoming: Can you look up the measured OB 30 min (% ID/g) of CCN(CC)C(=O)C1Sc2ccccc2-c2c1c1cc(OC)ccc1n2CC[18F] (racemic) [tetracyclic indole, reference compound] for me?
Outgoing: 0.31

Incoming: // OB 30 min (% ID/g) lookup, key: CCN(CC)C(=O)C1CC(C)Cc2c1c1ccccc1n2CC[18F] (centres unmarked)
Outgoing: 0.42

Incoming: Fill in: OB 30 min (% ID/g) of CN(Cc1ccccc1)C(=O)C1CCCc2c1c1ccccc1n2CC[18F] (centres unmarked) is ___
Outgoing: 0.34

Incoming: Report OB 30 min (% ID/g) for CCN(CC)C(=O)C1CCCc2c1c1c(F)cccc1n2CC[18F] (centres unmarked) please.
Outgoing: 0.51

Incoming: // returns reported OB 30 min (% ID/g) for input CCN(CC)C(=O)C1CCCc2c1c1cc(F)ccc1n2CC[18F] (centres unmarked)
Outgoing: 0.41

Data credit: patent US9220795B2
